Overview of reported log10(IC50) across a group of compounds:
TARGET_UNDER_TEST: KRas^G12D (Homo sapiens, UniProt P01116, G12D)
Construct: Biotinylated KRas (corresponding to amino acids 1-169, produced at Accelegan Inc.); biotin (biotinylated); purchased Accelegan Inc
Sequence (P01116 1-169 isoform P01116-2 G12D): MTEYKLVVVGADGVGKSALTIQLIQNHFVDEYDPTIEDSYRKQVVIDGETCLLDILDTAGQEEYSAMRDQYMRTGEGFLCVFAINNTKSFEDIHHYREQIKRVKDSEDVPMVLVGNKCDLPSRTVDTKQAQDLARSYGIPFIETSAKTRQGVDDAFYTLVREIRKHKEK
PROTOCOL_TEXT: KRas TR-FRET tracer displacement binding assay, G12D
CONDITION_DETAILS: 60-minute incubation
Parameter value (number): base-10 log of IC50 in nM.

Value of measured log10(IC50) for the entry N#Cc1c(N)sc2c(F)ccc(-c3c(Cl)cc4c(N5CCCOC6CC65)nc(OC[C@@]56CCCN5C[C@H](F)C6)nc4c3F)c12 (single isomer, unassigned) [Example 212] : 1.15

Value of measured log10(IC50) for the entry CC(Oc1nc(N(C)C)c2cc(F)c(-c3ccc(F)c4sc(N)c(C#N)c34)c(F)c2n1)C12CCCN1CCC2 (single isomer, unassigned; isomer 2) [Example 178] : 1.96

Value of measured log10(IC50) for the entry `C[C@@]1(O)COCCN(c2nc(OC[C@@]34CCCN3C[C@H](F)C4)nc3c(F)c(-c4ccc(F)c5sc(N)c(C#N)c45)c(F)cc23)C1` : 0.60

Value of measured log10(IC50) for the entry `N#Cc1c(N)sc2c(F)ccc(-c3c(Cl)cc4c(N5CCCOCC5)nc(OC[C@@]56CCCN5C[C@H](F)C6)nc4c3F)c12` : 0.48

Value of measured log10(IC50) for the entry CC1CN(C)CCCN1c1nc(N(C)C)c2cc(Cl)c(-c3ccc(F)c4sc(N)c(C#N)c34)c(F)c2n1 (centres unmarked) : 2.98
